All values here come from paper PMC6225228.

Tested on: Candida albicans ATCC 44859
Assay comment: Antifungal microdilution broth, CA
Format: cell-based
Condition context: Candida albicans, ATCC44859, 48 h, read-out: MIC CA
Provide the recorded MIC for the entries that follow.

Notebook: pull reported MIC for Candida albicans ATCC 44859, entry O=C(Nc1cnc(Cl)cn1)c1ccccc1 [Compound 2a] > 500 µM

Notebook: pull reported MIC for Candida albicans ATCC 44859, entry COc1cccc(C(=O)Nc2cnccn2)c1 [Compound 1f] > 500 µM

Notebook: pull reported MIC for Candida albicans ATCC 44859, entry O=C(Nc1cnc(Cl)cn1)c1ccc(Br)cc1 [Compound 2m] > 125 µM

Notebook: pull reported MIC for Candida albicans ATCC 44859, entry O=C(c1ccc(Cl)cc1)N(C(=O)c1ccc(Cl)cc1)c1cnccn1 [Compound 1l-SP] > 125 µM

Notebook: pull reported MIC for Candida albicans ATCC 44859, entry COc1ccccc1C(=O)Nc1cncc(Cl)n1 [Compound 3e] > 500 µM

Notebook: pull reported MIC for Candida albicans ATCC 44859, entry O=C(Nc1cnccn1)c1ccc(Cl)cc1 [Compound 1l] > 125 µM

Notebook: pull reported MIC for Candida albicans ATCC 44859, entry CC(=O)Oc1cccc(C(=O)Nc2cnccn2)c1 [Compound 1c-Ac] > 500 µM

Notebook: pull reported MIC for Candida albicans ATCC 44859, entry O=C(Nc1cnc(Cl)cn1)c1cccc(Cl)c1 [Compound 2k] > 125 µM

Notebook: pull reported MIC for Candida albicans ATCC 44859, entry CC(=O)Oc1ccc(C(=O)Nc2cnccn2)cc1 [Compound 1d-Ac] > 500 µM

Notebook: pull reported MIC for Candida albicans ATCC 44859, entry O=C(Nc1cnccn1)c1cccc(Cl)c1 [Compound 1k] > 125 µM

Notebook: pull reported MIC for Candida albicans ATCC 44859, entry O=C(Nc1cnc(Cl)cn1)c1ccc(Cl)cc1 [Compound 2l] > 125 µM

Notebook: pull reported MIC for Candida albicans ATCC 44859, entry O=C(Nc1cncc(Cl)n1)c1cccc(Cl)c1 [Compound 3k] > 125 µM

Notebook: pull reported MIC for Candida albicans ATCC 44859, entry COc1ccccc1C(=O)Nc1cnccn1 [Compound 1e] > 500 µM

Notebook: pull reported MIC for Candida albicans ATCC 44859, entry COc1cccc(C(=O)Nc2cnc(Cl)cn2)c1 [Compound 2f] 500 µM

Notebook: pull reported MIC for Candida albicans ATCC 44859, entry O=C(Nc1cnc(Cl)cn1)c1ccccc1Cl [Compound 2j] > 500 µM

Notebook: pull reported MIC for Candida albicans ATCC 44859, entry COc1ccccc1C(=O)Nc1cnc(Cl)cn1 [Compound 2e] > 125 µM

Notebook: pull reported MIC for Candida albicans ATCC 44859, entry O=C(Nc1cnccn1)c1ccccc1Cl [Compound 1j] > 500 µM

Notebook: pull reported MIC for Candida albicans ATCC 44859, entry CCc1ccc(C(=O)Nc2cnc(Cl)cn2)cc1 [Compound 2i] > 125 µM

Notebook: pull reported MIC for Candida albicans ATCC 44859, entry Cc1ccc(C(=O)Nc2cnccn2)cc1 [Compound 1h] 500 µM

Notebook: pull reported MIC for Candida albicans ATCC 44859, entry Cc1ccc(C(=O)Nc2cnc(Cl)cn2)cc1 [Compound 2h] > 125 µM

Notebook: pull reported MIC for Candida albicans ATCC 44859, entry O=C(Nc1cnccn1)c1cccc(O)c1 [Compound 1c] > 500 µM

Notebook: pull reported MIC for Candida albicans ATCC 44859, entry COc1ccc(C(=O)Nc2cnc(Cl)cn2)cc1 [Compound 2g] > 125 µM

Notebook: pull reported MIC for Candida albicans ATCC 44859, entry CC(=O)Oc1cccc(C(=O)Nc2cnc(Cl)cn2)c1 [Compound 2c-Ac] > 125 µM

Notebook: pull reported MIC for Candida albicans ATCC 44859, entry CC(=O)Oc1ccc(C(=O)Nc2cnc(Cl)cn2)cc1 [Compound 2d-Ac] > 125 µM

Notebook: pull reported MIC for Candida albicans ATCC 44859, entry O=C(Nc1cnccn1)c1ccccc1O [Compound 1b] > 500 µM

Notebook: pull reported MIC for Candida albicans ATCC 44859, entry O=C(Nc1cnc(Cl)cn1)c1ccc(O)cc1 [Compound 2d] > 500 µM

Notebook: pull reported MIC for Candida albicans ATCC 44859, entry CCc1ccc(C(=O)Nc2cnccn2)cc1 [Compound 1i] > 500 µM

Notebook: pull reported MIC for Candida albicans ATCC 44859, entry O=C(Nc1cnccn1)c1cccc(C(F)(F)F)c1 [Compound 1n] > 125 µM

Notebook: pull reported MIC for Candida albicans ATCC 44859, entry O=C(Nc1cnccn1)c1ccccc1 [Compound 1a] > 500 µM

Notebook: pull reported MIC for Candida albicans ATCC 44859, entry O=C(Nc1cnc(Cl)cn1)c1cccc(O)c1 [Compound 2c] > 500 µM

Notebook: pull reported MIC for Candida albicans ATCC 44859, entry CC(=O)Oc1ccccc1C(=O)Nc1cnc(Cl)cn1 [Compound 2b-Ac] 125 µM

Notebook: pull reported MIC for Candida albicans ATCC 44859, entry COc1ccc(C(=O)Nc2cnccn2)cc1 [Compound 1g] > 500 µM

Notebook: pull reported MIC for Candida albicans ATCC 44859, entry O=C(Nc1cncc(Cl)n1)c1ccccc1Cl [Compound 3j] > 500 µM

Notebook: pull reported MIC for Candida albicans ATCC 44859, entry O=C(Nc1cnc(Cl)cn1)c1ccccc1O [Compound 2b] 62.5 µM
